Data provenance: patent US8932597B2

Tested on: anti-M2 human monoclonal antibody Z3G1
Format: binding
attribute-measured: Signal (peptides that show specific binding to Z3G1)
Write the number on its own, no unit after it.

substance: 684 (SLLTEVETPIRNHWGCRCNDSSD; epitope peptide) [compound 684]
reading: 2377

substance: 452 (SLLTEVGSLLTEC; epitope peptide) [compound 452]
reading: 1862

substance: 387 (SLLTEVETPIRTEWGCRCNDSSD; epitope peptide) [compound 387]
reading: 2360

// moving on: another record for Signal (peptides that show specific binding to Z3G1)
Input line: What value of measured Signal (peptides that show specific binding to Z3G1) is listed for 239 (CSLLTEVETCEVETPIRNEWGSRSNC; epitope peptide) [compound 239] ?
Output line: 2549

###

System: anti-M2 human monoclonal antibody Z3G1
Format: binding
attribute-measured: Signal (peptides that show specific binding to Z3G1)
Write the number on its own, no unit after it.

Answered examples (3):
substance: 1569 (KLLTEVETPIRNEWGCRCNDSSD; epitope peptide) [compound 1569]
target-under-test: anti-M2 human monoclonal antibody Z3G1
reading: 1826

substance: 647 (SLLTEVETPIRNEWGHRCNDSSD; epitope peptide) [compound 647]
target-under-test: anti-M2 human monoclonal antibody Z3G1
reading: 2113

substance: 623 (SLLTEVETCIRNEWGCRCNDSSD; epitope peptide) [compound 623]
target-under-test: anti-M2 human monoclonal antibody Z3G1
reading: 1992

Input line: What value of measured Signal (peptides that show specific binding to Z3G1) is listed for 464 (SLLTEVGSLCTEV; epitope peptide) [compound 464] ?
Output line: 2219

Input line: What value of measured Signal (peptides that show specific binding to Z3G1) is listed for 284 (ASLLTEVGSLLTCV; epitope peptide) [compound 284] ?
Output line: 2358

Input line: What value of measured Signal (peptides that show specific binding to Z3G1) is listed for 1584 (SLLIEVETPIRNEWGCRCNDSSD; epitope peptide) [compound 1584] ?
Output line: 1899

Input line: What value of measured Signal (peptides that show specific binding to Z3G1) is listed for 617 (SLLTEVETPIRNSWGCRCNDSSD; epitope peptide) [compound 617] ?
Output line: 2300

Input line: What value of measured Signal (peptides that show specific binding to Z3G1) is listed for 664 (SLLTEVETPIRNEWGNRCNDSSD; epitope peptide) [compound 664] ?
Output line: 2328

Input line: What value of measured Signal (peptides that show specific binding to Z3G1) is listed for 672 (SLLTEVETPIRNEWGRRCNDSSD; epitope peptide) [compound 672] ?
Output line: 2372

###

System: anti-M2 human monoclonal antibody Z3G1
Assay type: binding
Please respond with y when measured Signal (peptides that bind to Z3G1) is strictly beneath 2000, and with n in all other cases.

Please review the following examples before continuing.
substance: 437 (SLLTEVETPIR; epitope peptide) [compound 437]
assigned-category: n

substance: 1290 (MSLLPEVETPIRNEWGCRCN; epitope peptide) [compound 1290]
assigned-category: n

substance: 1374 (SLLTEVETPIRNECGC; epitope peptide) [compound 1374]
assigned-category: y

substance: 1254 (MGLLTEVETPIRNEWGCRCN; epitope peptide) [compound 1254]
assigned-category: n

substance: 1494 (CLTEVETPIRLLTEVETPICVETPIRNEW; epitope peptide; MISC_FEATURE (1)..(1): C is an attachment site for a CLIP; MISC_FEATURE (10)..(10): R is an attachment site for a CLIP; MISC_FEATURE (11)..(11): L is an attachment site for a CLIP; MISC_FEATURE (29)..(29): W is an attachment site for a CLIP) [compound 1494]
assigned-category: n

Below: the item to evaluate.
Input line: State whether 2000 exceeds Signal (peptides that bind to Z3G1) recorded for 1300 (MSLLTEVDTPIRNEWGCRCN; epitope peptide) [compound 1300] .
Output line: n
